Test system: ragweed (common ragweed, Ambrosia elatior)
Test: Test A greenhouse herbicide test, pre- and postemergence
Assay type: in vivo
Settings: Postemergence, 500 g ai/ha; visual rating after approx. 10 d, 0 to 100 scale (0 no effect, 100 complete control)
Labelling field: enter Y if recorded Plant response rating, Ragweed is less than 90. Enter N if it equals or exceeds that cut-off.

Look over these answered cases.
# MOLECULE, CLASS LABEL
rows = [
    ("Cc1ccc2ccccc2c1-c1c(OS(C)(=O)=O)c(Br)nn(C)c1=O [Compound 155]", "N"),
    ("COC(=O)Oc1c(Br)nn(C)c(=O)c1-c1c(C)ccc2ccccc12 [Compound 137]", "N"),
    ("Cc1nn(C)c(=O)c(-c2ccc(Cl)c3ccccc23)c1OS(=O)(=O)N(C)C [Compound 185]", "Y"),
    ("C#Cc1ccc2cccc(-c3c(O)c(C)nn(C)c3=O)c2c1 [Compound 150]", "Y"),
    ("CC(=O)Oc1c(C)nn(C)c(=O)c1-c1c([N+](=O)[O-])ccc2ccccc12 [Compound 164]", "N"),
]

Answer whether the molecule Cc1n[nH]c(=O)c(-c2cccc3ccccc23)c1OC(F)F [Compound 175] has Plant response rating, Ragweed strictly less than 90 Y

Answer whether the molecule CC(=O)Oc1c(C)nn(C)c(=O)c1-c1ccc(Cl)c2ccccc12 [Compound 157] has Plant response rating, Ragweed strictly less than 90 N

* * *

Test system: Italian ryegrass (Lolium multiflorum)
Test: Test E greenhouse herbicide test, pre- and postemergence
Type: in vivo
Details: Postemergence, 31 g ai/ha; visual, scale 0 no effect to 100 complete control
Kindly supply the reported Plant response rating, Ryegrass, Italian values for the records listed here.
Give bare numbers.

Some entries whose results are on file:
# COMPOUND, VALUE MEASURED
measured = [
    ("COc1nn(C)c(=O)c(-c2c(C)sc3ccc(Cl)cc23)c1O [Compound 100]", 50),
    ("CCOC(=O)Oc1c(C)nn(C)c(=O)c1-c1c(C)sc2c(C)cc(C)cc12 [Compound 83]", 60),
    ("CC(=O)Oc1c(C)nn(C)c(=O)c1-c1ccc(F)c2ccccc12 [Compound 90]", 80),
    ("CC(=O)Oc1c(C)nn(C)c(=O)c1-c1c(C)cc(C)c2ccccc12 [Compound 153]", 85),
]

# Plant response rating, Ryegrass, Italian of CSCC(=O)Oc1c(C)nn(C)c(=O)c1-c1cccc2ccccc12 [Compound 171] = 65

* * *

Test system: barnyardgrass (Echinochloa crus-galli)
Assay: Test C greenhouse herbicide test, pre- and postemergence
Assay type: in vivo
Conditions: Preemergence, 31 g ai/ha; scale 0 to 100, 0 is no effect, 100 is complete control
Labelling field: enter Satisfied if recorded Plant response rating, Barnyardgrass is less than 10. Enter Not satisfied if it equals or exceeds that cut-off.

Look over these answered cases.
# CHEM SMILES, CLASS LABEL
records = [
    ("CCC(=O)Oc1c(C)nn(C)c(=O)c1-c1c(C)sc2c(C)cc(C)cc12", "Not satisfied"),
    ("CSCC(=O)Oc1c(C)nn(C)c(=O)c1-c1cccc2ccccc12", "Satisfied"),
    ("Cc1cc(C)c2sc(C)c(-c3c(OC(=O)OC(C)C)c(C)nn(C)c3=O)c2c1", "Satisfied"),
    ("CCOC(=O)Oc1c(C)nn(C)c(=O)c1-c1c(C)sc2c(C)cc(C)cc12", "Not satisfied"),
]

Consider the record given below.
Answer whether the compound COc1nn(C)c(=O)c(-c2c(C)ccc3ccccc23)c1O has Plant response rating, Barnyardgrass strictly less than 10 Not satisfied

* * *

Kindly supply the reported Plant response rating, Pigweed values for the records listed here.
System: pigweed (Amaranthus retroflexus)
Experiment: Test D controlled growth environment herbicide test, pre- and postemergence
Type: in vivo
Conditions: postemergence, 62 g ai/ha; scale 0 to 100, 0 no effect, 100 complete control
Answers are plain numbers.

Some entries whose results are on file:
# CHEM SMILES, VALUE KIND, VALUE MEASURED
records = [
    ("CC(=O)Oc1c(C)nn(C)c(=O)c1-c1c(C)sc2ccc(C)cc12", "Plant response rating, Pigweed", 100),
    ("C#CCOC(=O)Oc1c(C)nn(C)c(=O)c1-c1c(C)sc2ccc(C)cc12", "Plant response rating, Pigweed", 100),
    ("COc1nn(C)c(=O)c(-c2c(C)ccc3ccccc23)c1O", "Plant response rating, Pigweed", 100),
]

Now consider a different compound.
# Plant response rating, Pigweed of Cc1cc(C)c2sc(C)c(-c3c(OC(=O)OCCCl)c(C)nn(C)c3=O)c2c1 = 80

* * *

Kindly supply the reported Morningglory plant response rating values for the records listed here.
System: morningglory (Ipomoea coccinea)
Assay: Test C greenhouse herbicide test, pre- and postemergence
Assay type: in vivo
Conditions: postemergence, 125 g ai/ha; scale 0 to 100, 0 no effect, 100 complete control
One number for each entry.

Some entries whose results are on file:
# CHEM SMILES, TARGET, Morningglory plant response rating
rows = [
    ("CCC(=O)Oc1c(C)nn(C)c(=O)c1-c1ccc(Br)c2ccccc12", "morningglory (Ipomoea coccinea)", 100),
    ("CSCC(=O)Oc1c(C)nn(C)c(=O)c1-c1cccc2ccccc12", "morningglory (Ipomoea coccinea)", 100),
    ("Cc1nn(C)c(=O)c(-c2cccc3ccc(C#N)cc23)c1O", "morningglory (Ipomoea coccinea)", 85),
]

Noted Morningglory plant response rating for COC(=O)Oc1c(C)nn(C)c(=O)c1-c1c([N+](=O)[O-])ccc2ccccc12 , tested on morningglory (Ipomoea coccinea): 85

* * *

Tested on: chickweed (common chickweed, Stellaria media)
Assay: Test C greenhouse herbicide test, postemergence
Assay type: in vivo
Conditions: Postemergence, 62 g ai/ha; 0 to 100 scale (0 no effect, 100 complete control)
VALUE KIND: Chickweed plant response rating
Answers are plain numbers.

# CHEM SMILES, TARGET, Chickweed plant response rating
rows = [
    ("CSCC(=O)Oc1c(C)nn(C)c(=O)c1-c1cccc2ccccc12", "chickweed (common chickweed, Stellaria media)", 90),
    ("Cc1cc(C)c2ccccc2c1-c1c(OS(C)(=O)=O)c(C)nn(C)c1=O", "chickweed (common chickweed, Stellaria media)", 90),
    ("COC(=O)Oc1c(C)nn(C)c(=O)c1-c1c([N+](=O)[O-])ccc2ccccc12", "chickweed (common chickweed, Stellaria media)", 90),
]

Noted Chickweed plant response rating for CC(=O)Oc1c(C)nn(C)c(=O)c1-c1c(C)cc(C)c2ccccc12 , tested on chickweed (common chickweed, Stellaria media): 95

* * *

Tested on: blackgrass (Alopecurus myosuroides)
Assay: Test C greenhouse herbicide test, pre- and postemergence
Format: in vivo
Conditions: Preemergence, 31 g ai/ha; scale 0 to 100, 0 is no effect, 100 is complete control
VALUE KIND: Plant response rating, Blackgrass
Numbers only.

Batch: Plant response rating, Blackgrass for all items listed.
1. CCC(=O)Oc1c(C)nn(C)c(=O)c1-c1ccc(Br)c2ccccc12 [Compound 133]
2. Cc1ccc2ccccc2c1-c1c(O)c(Cl)nn(C)c1=O [Compound 125]
3. CC(=O)Oc1c(C)nn(C)c(=O)c1-c1c(C)cc(C)c2ccccc12 [Compound 153]
4. CCC(=O)Oc1c(Cl)nn(C)c(=O)c1-c1c(C)sc2ccc(Cl)cc12 [Compound 111]
5. COc1nn(C)c(=O)c(-c2c(C)ccc3ccccc23)c1OC(=O)OC(C)C [Compound 36]
6. Cc1ccc2ccc(C)c(-c3c(O)c(C)nn(C)c3=O)c2c1 [Compound 60]
7. CCOC(=O)Oc1c(C)nn(C)c(=O)c1-c1c(CC)ccc2ccccc12 [Compound 37]

30
50
90
0
0
90
10

Batch: Plant response rating, Blackgrass for all items listed.
1. COc1nn(C)c(=O)c(-c2c(C)ccc3ccccc23)c1OC(C)=O [Compound 138]
2. CCC(=O)Oc1c(C)nn(C)c(=O)c1-c1c(C)sc2c(C)cc(C)cc12 [Compound 28]

[45, 85]

* * *

Test system: field bindweed (Convolvulus arvensis)
Assay: Test E greenhouse herbicide test, pre- and postemergence
Assay type: in vivo
Settings: Postemergence, 31 g ai/ha; visual, scale 0 no effect to 100 complete control
VALUE KIND: Plant response rating, Field Bindweed
One number for each entry.

Some entries whose results are on file:
# CHEM SMILES, VALUE KIND, VALUE MEASURED
data = [
    ("CCOC(=O)Oc1c(C)nn(C)c(=O)c1-c1c(C)sc2ccc(C)cc12", "Plant response rating, Field Bindweed", 85),
    ("COc1nn(C)c(=O)c(-c2c(C)sc3ccc(Cl)cc23)c1O", "Plant response rating, Field Bindweed", 75),
    ("CC(=O)Oc1c(C)nn(C)c(=O)c1-c1c(C)cc(C)c2ccccc12", "Plant response rating, Field Bindweed", 80),
    ("CCC(=O)Oc1c(C)nn(C)c(=O)c1-c1c(C)sc2ccc(Cl)cc12", "Plant response rating, Field Bindweed", 80),
]

# Plant response rating, Field Bindweed of CSCC(=O)Oc1c(C)nn(C)c(=O)c1-c1cccc2ccccc12 = 70
